Entries and their measured amyloid nucleation score follow.
# ASSAY_SUMMARY: amyloid nucleation score (Sup35N fusion, yeast selection) (log enrichment); library NNK1; higher = more nucleation; inactive = no reads after selection;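 also: zero at mode of non-aggregating sequences after 7 days selection at 30°C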
# output: bare number, no unit

Record excerpt, results attached:
SUBSTANCE	amyloid nucleation score
DDMVPNWARVTCLSQNWL	0.385
EDMTLMLNNFSPILAIGWWT	1.25
DVYVACTSFDLELCICVMRL	0.237
DMFCQAI	0.773
WKGLRYLNFYFTE	4.52
IVGVYLSLNWRHPSRQGSGC	0.321

Problem: Data request, read-out amyloid nucleation score, for IHIWSSCLSNYKVILGAEVL
Solution: 0.407

Problem: Data request, read-out amyloid nucleation score, for VYEYFRLAGGAIQIAGIPVA
Solution: -0.002

Problem: Data request, read-out amyloid nucleation score, for NYNQGRGYRSVSSNIIEGDK
Solution: 1.74

Problem: Data request, read-out amyloid nucleation score, for RNCWGANLFDMWIRKSFR
Solution: 0.067

Problem: Data request, read-out amyloid nucleation score, for NAPLEWSSGHASQIVLGHVT
Solution: -0.177

Problem: Data request, read-out amyloid nucleation score, for PCVQSHMCYYNMSGITKGFR
Solution: -0.332

Problem: Data request, read-out amyloid nucleation score, for DPYTHYVAMRINCYWEMCAL
Solution: -1.06

Problem: Data request, read-out amyloid nucleation score, for SMYFQRP
Solution: 0.53

Problem: Data request, read-out amyloid nucleation score, for FFFRKTSY
Solution: 0.552

Problem: Data request, read-out amyloid nucleation score, for MYWESSSHEHVSEKPVRLIL
Solution: 1.07

Problem: Data request, read-out amyloid nucleation score, for YKLKFIRGACHSS
Solution: 0.9

###

# ASSAY_SUMMARY: amyloid nucleation score (Sup35N fusion, yeast selection) (log enrichment); library NNK2; higher = more nucleation; inactive = no reads after selection
Kindly return True if reported amyloid nucleation score is no lower than 1; return False if it is lower.

SUBSTANCE	LABEL
LEVKEVSEFLRLTYMYL	False
QNESHIH	True

Problem: Is the recorded value of amyloid nucleation score equal to or greater than 1 for this substance? MLSLVMRVGFNCFIT
Solution: False

Problem: Is the recorded value of amyloid nucleation score equal to or greater than 1 for this substance? LRYNADMVGCKFWWIPVWSL
Solution: False

Problem: Is the recorded value of amyloid nucleation score equal to or greater than 1 for this substance? DIIVVQCIVSVMCTMRASRS
Solution: True

Problem: Is the recorded value of amyloid nucleation score equal to or greater than 1 for this substance? MMFTSQTGDLLFF
Solution: True

Problem: Is the recorded value of amyloid nucleation score equal to or greater than 1 for this substance? SIQCMISWQDRDNVEACKVE
Solution: False

Problem: Is the recorded value of amyloid nucleation score equal to or greater than 1 for this substance? RVTSEIWGCGGGFREECIKE
Solution: False

Problem: Is the recorded value of amyloid nucleation score equal to or greater than 1 for this substance? LVSYSDVGWPLYWFCSVRVP
Solution: True

Problem: Is the recorded value of amyloid nucleation score equal to or greater than 1 for this substance? LYAVRPLTVGTKCYMMRGLL
Solution: False

Problem: Is the recorded value of amyloid nucleation score equal to or greater than 1 for this substance? TCNSSGPMMRCLIHWETRHR
Solution: True

Problem: Is the recorded value of amyloid nucleation score equal to or greater than 1 for this substance? LNVDGAFGKTAWYFRFVIQV
Solution: False

Problem: Is the recorded value of amyloid nucleation score equal to or greater than 1 for this substance? FYLRGHACDSSWSNLVVGLW
Solution: True

Problem: Is the recorded value of amyloid nucleation score equal to or greater than 1 for this substance? ISFWSHSDTFVGNEGEHSVR
Solution: True

Problem: Is the recorded value of amyloid nucleation score equal to or greater than 1 for this substance? GVTKNCSC
Solution: False

Problem: Is the recorded value of amyloid nucleation score equal to or greater than 1 for this substance? PCTMDYGVPRT
Solution: False

###

Entries and their measured amyloid nucleation score follow.
# ASSAY_SUMMARY: amyloid nucleation score (Sup35N fusion, yeast selection) (log enrichment); library NNK1; higher = more nucleation; inactive = no reads after selection
# output: bare number, no unit

Record excerpt, results attached:
SUBSTANCE	amyloid nucleation score
LAWLQCRAGETFITWRHQFY	0.544
RAGTFTVSTQGPS	0.268

Problem: Data request, read-out amyloid nucleation score, for LVLGAVV
Solution: -0.104

Problem: Data request, read-out amyloid nucleation score, for HGRLTYSDVVNVRTFPGLMK
Solution: -0.232

Problem: Data request, read-out amyloid nucleation score, for CVRLHPSDWAFYRAPFNKHG
Solution: 0.659

Problem: Data request, read-out amyloid nucleation score, for NPWVWTLSIEQGRNE
Solution: 0.074

Problem: Data request, read-out amyloid nucleation score, for WLVLTMS
Solution: 0.086

###

Entries and their measured amyloid nucleation score follow.
# ASSAY_SUMMARY: amyloid nucleation score (Sup35N fusion, yeast selection) (log enrichment); library NNK2; higher = more nucleation; inactive = no reads after selection
# output: bare number, no unit

Record excerpt, results attached:
PRIMARY_SEQUENCE	amyloid nucleation score
MLQYWMPVLGWWAFMRNLAF	1.71
RDCIRAVSCVIENTGPSAYE	0.049
WSPIGSFRCCGWCSSHQVRI	0.179

Problem: Data request, read-out amyloid nucleation score, for VREYQSWPKGCCT
Solution: 4.78

Problem: Data request, read-out amyloid nucleation score, for CFTCHTIYCVYSKFKRDMDR
Solution: 3.56

Problem: Data request, read-out amyloid nucleation score, for QRARTRYGLRSLSYSAYIWS
Solution: 0.807

Problem: Data request, read-out amyloid nucleation score, for VTYLMCLWAGVARG
Solution: -0.324

Problem: Data request, read-out amyloid nucleation score, for LSRWKDRSRGWRGDAAPRIR
Solution: 0.539

###

# ASSAY_SUMMARY: amyloid nucleation score (Sup35N fusion, yeast selection) (log enrichment); library NNK1; higher = more nucleation; inactive = no reads after selection
Entries and their measured amyloid nucleation score follow.
# output: bare number, no unit

Record excerpt, results attached:
PRIMARY_SEQUENCE	amyloid nucleation score
STFSSVTGYKPCY	0.551
TVPLEIIL	0.382
NKDYMVVLTDFS	-0.326
AWLKSSGEEVVAGAQRPEHV	-1.02
TGLSWVYSFRIEYVKVGFY	0.426

Problem: Data request, read-out amyloid nucleation score, for GQFEHGVGVQQSSGSTQRWL
Solution: -1.21

Problem: Data request, read-out amyloid nucleation score, for WQLYIEYFE
Solution: 0.128

###

# ASSAY_SUMMARY: amyloid nucleation score (Sup35N fusion, yeast selection) (log enrichment); library NNK2; higher = more nucleation; inactive = no reads after selection
MEASURED_ATTRIBUTE: amyloid nucleation score
# output: bare number, no unit

SUBSTANCE	RESULT_NUMBER
AWLLTLPKLYSLEC	-0.434

Problem: Data request, read-out amyloid nucleation score, for LTMLPDNVPTKALFSYLSVT
Solution: -1.24

Problem: Data request, read-out amyloid nucleation score, for FTFFIRYLERDWPRLL
Solution: -0.549

Problem: Data request, read-out amyloid nucleation score, for LTPEFSVCGCRTEG
Solution: 2.65

Problem: Data request, read-out amyloid nucleation score, for TEIRLNVSLRSRRGPCPTRL
Solution: 6.06

Problem: Data request, read-out amyloid nucleation score, for RSPRHQNQDPRLKGRNARSP
Solution: 2.49

Problem: Data request, read-out amyloid nucleation score, for IDFRISLCVRFFGCFLLDYY
Solution: -0.618

Problem: Data request, read-out amyloid nucleation score, for KRSVAVFRRCV
Solution: 0.817

Problem: Data request, read-out amyloid nucleation score, for DIVIYWV
Solution: -0.139

Problem: Data request, read-out amyloid nucleation score, for HVTWKNMIIDYLVP
Solution: 0.615

###

# ASSAY_SUMMARY: amyloid nucleation score (Sup35N fusion, yeast selection) (log enrichment); library NNK2; higher = more nucleation; inactive = no reads after selection
Entries and their measured amyloid nucleation score follow.
# output: bare number, no unit

Record excerpt, results attached:
SUBSTANCE	MEASURED_ATTRIBUTE	RESULT_NUMBER
SRIIYMPPPVCHESLGKRPV	amyloid nucleation score	-0.296
CNFLFYPFWCWLSICYFRSM	amyloid nucleation score	4.55
TIGRGYGSISQRHAIRLGDN	amyloid nucleation score	0.164

Problem: Data request, read-out amyloid nucleation score, for TLWYRLFLVSISVFPKFVTE
Solution: -0.451

Problem: Data request, read-out amyloid nucleation score, for FYGVNVRIRCKH
Solution: 0.486

Problem: Data request, read-out amyloid nucleation score, for MVINSAWVCENGLSQYFLAK
Solution: 4.27

Problem: Data request, read-out amyloid nucleation score, for SFGHATLYSFH
Solution: -0.058

Problem: Data request, read-out amyloid nucleation score, for CFEVFRFRRNRSLISPYQRM
Solution: 0.612

Reference source for all entries: the supplement of paper PMC12042874
